Value source: the supplement of paper PMC7125110

Listing of recorded self-cleavage kobs at 640 uM GlcN6P by entry.
B1: glmS ribozyme (parent)
chain: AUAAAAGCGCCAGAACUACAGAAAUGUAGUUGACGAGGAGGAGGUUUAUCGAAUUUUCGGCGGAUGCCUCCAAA

- Variants of: B1
- experiment.description: self-cleavage kobs at 640 uM GlcN6P; higher = faster cleavage; RNA array
- experimental.context: with glucosamine-6-phosphate
Fewer inactive variants are shown than the library holds.
Provide only the numeric value, understood in s⁻¹.

variant.identifier: A39G U45A U57C
self-cleavage kobs at 640 uM GlcN6P / s⁻¹: 0.000107
//
variant.identifier: U30A A36U C70G
self-cleavage kobs at 640 uM GlcN6P / s⁻¹: 0.000179
//
variant.identifier: U31G U49G C67A
self-cleavage kobs at 640 uM GlcN6P / s⁻¹: 4.09e-05
//
variant.identifier: C10A C50G U65G
self-cleavage kobs at 640 uM GlcN6P / s⁻¹: 0.000121
//
variant.identifier: C16U A52G
self-cleavage kobs at 640 uM GlcN6P / s⁻¹: 0.000237

q: Entry under review: A15G A48U C50U G60A C68G . Reported self-cleavage kobs at 640 uM GlcN6P?
a: 0.000775

q: Entry under review: A12U U57A . Reported self-cleavage kobs at 640 uM GlcN6P?
a: 0.000113

q: Entry under review: G32A C71U . Reported self-cleavage kobs at 640 uM GlcN6P?
a: 0.000487
